# Tested target: AMPK alpha2/beta1/gamma1 (Homo sapiens, UniProt P54619+P54646+Q9Y478)
# Sequence (P54646 whole entry): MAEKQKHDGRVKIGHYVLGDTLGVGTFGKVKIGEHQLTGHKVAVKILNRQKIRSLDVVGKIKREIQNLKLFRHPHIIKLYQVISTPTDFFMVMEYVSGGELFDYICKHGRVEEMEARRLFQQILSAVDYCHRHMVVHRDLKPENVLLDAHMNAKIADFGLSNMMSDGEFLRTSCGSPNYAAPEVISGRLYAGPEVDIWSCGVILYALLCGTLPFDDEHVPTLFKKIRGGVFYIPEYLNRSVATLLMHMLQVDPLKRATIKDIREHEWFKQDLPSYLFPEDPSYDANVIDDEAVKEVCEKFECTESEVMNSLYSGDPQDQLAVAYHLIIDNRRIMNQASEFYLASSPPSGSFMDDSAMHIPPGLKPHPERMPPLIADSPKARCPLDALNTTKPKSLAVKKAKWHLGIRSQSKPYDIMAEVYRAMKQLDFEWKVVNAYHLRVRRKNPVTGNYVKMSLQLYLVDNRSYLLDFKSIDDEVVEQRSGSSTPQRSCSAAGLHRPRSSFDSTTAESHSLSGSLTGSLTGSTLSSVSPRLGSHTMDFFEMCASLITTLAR
# Sequence (P54619 whole entry): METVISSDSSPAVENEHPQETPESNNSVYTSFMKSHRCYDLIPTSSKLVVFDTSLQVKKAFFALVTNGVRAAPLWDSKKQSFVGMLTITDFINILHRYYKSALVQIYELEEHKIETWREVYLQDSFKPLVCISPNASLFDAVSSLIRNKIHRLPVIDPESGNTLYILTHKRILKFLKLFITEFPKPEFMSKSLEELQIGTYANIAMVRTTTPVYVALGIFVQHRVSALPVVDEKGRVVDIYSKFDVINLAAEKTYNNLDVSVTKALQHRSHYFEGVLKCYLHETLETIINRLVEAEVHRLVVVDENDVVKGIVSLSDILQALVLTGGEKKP
# Sequence (Q9Y478 whole entry): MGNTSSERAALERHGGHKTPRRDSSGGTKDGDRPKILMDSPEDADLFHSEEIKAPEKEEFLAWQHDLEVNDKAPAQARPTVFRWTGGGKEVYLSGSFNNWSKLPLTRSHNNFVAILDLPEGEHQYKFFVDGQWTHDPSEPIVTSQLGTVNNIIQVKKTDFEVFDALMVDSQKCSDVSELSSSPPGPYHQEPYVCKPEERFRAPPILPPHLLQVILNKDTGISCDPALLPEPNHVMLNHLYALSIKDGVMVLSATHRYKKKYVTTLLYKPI
# Test description: Activation of recombinant AMPKalpha2beta1gamma1 (unknown origin) expressed in Escherichia coli BL21 in presence of CaMKKbeta (unknown origin) incubated for 45 mins in presence of substrate-1 peptide and ATP by HTRF assay
For each entry below, report its EC50 value.

Input line: Item under review: `CC(C)=CCC[C@](C)(O[C@@H]1O[C@H](CO[C@@H]2OC[C@H](O)[C@H](O)[C@H]2O)[C@@H](O)[C@H](O)[C@H]1O)[C@H]1CC[C@]2(C)[C@@H]1[C@H](O)C[C@@H]1[C@@]3(C)CC[C@H](O[C@@H]4O[C@H](CO)[C@@H](O)[C@H](O)[C@H]4O[C@@H]4O[C@H](CO)[C@@H](OC(=O)CC(=O)O)[C@H](O)[C@H]4O)C(C)(C)[C@@H]3CC[C@]12C` . Reported EC50?
Output line: 16.8 to 2800 nM

Input line: Would you mind doing CC(C)=CCC[C@](C)(O[C@@H]1O[C@H](CO)[C@@H](O)[C@H](O)[C@H]1O)[C@H]1CC[C@]2(C)[C@@H]1[C@H](O)C[C@@H]1[C@@]3(C)CC[C@H](O[C@@H]4O[C@H](CO)[C@@H](O)[C@H](O)[C@H]4O[C@@H]4O[C@H](CO)[C@@H](O)[C@H](O)[C@H]4O)C(C)(C)[C@@H]3CC[C@]12C [GINSENOSIDE RD] as well?
Output line: 16.8 to 2800 nM

Input line: Would you mind doing CC(C)=CCC[C@](C)(O[C@@H]1O[C@H](CO[C@@H]2OC[C@H](O)[C@H](O)[C@H]2O)[C@@H](O)[C@H](O)[C@H]1O)[C@H]1CC[C@]2(C)[C@@H]1[C@H](O)C[C@@H]1[C@@]3(C)CC[C@H](O[C@@H]4O[C@H](CO)[C@@H](O)[C@H](O)[C@H]4O[C@@H]4O[C@H](CO)[C@@H](O)[C@H](O)[C@H]4O)C(C)(C)[C@@H]3CC[C@]12C [GINSENOSIDE RB2] as well?
Output line: 16.8 nM

Input line: Would you mind doing `CC(C)=CCC[C@](C)(O[C@@H]1O[C@H](CO[C@@H]2O[C@@H](CO)[C@H](O)[C@H]2O)[C@@H](O)[C@H](O)[C@H]1O)[C@H]1CC[C@]2(C)[C@@H]1[C@H](O)C[C@@H]1[C@@]3(C)CC[C@H](O[C@@H]4O[C@H](CO)[C@@H](O)[C@H](O)[C@H]4O[C@@H]4O[C@H](COC(=O)CC(=O)O)[C@@H](O)[C@H](O)[C@H]4O)C(C)(C)[C@@H]3CC[C@]12C` as well?
Output line: 16.8 to 2800 nM

----------
# Tested target: AMPK alpha2/beta1/gamma1 (Homo sapiens, UniProt P54619+P54646+Q9Y478)
# Test description: Activation of recombinant AMPKalpha2beta1gamma1 (unknown origin) expressed in Escherichia coli BL21 in presence of CaMKKbeta (unknown origin) incubated for 45 mins in presence of substrate-1 peptide and ATP by HTRF assay
For each entry below, report its EC50 value.

Input line: # query: EC50 | item CC(C)=CCC[C@](C)(O[C@@H]1O[C@H](CO[C@@H]2O[C@H](CO)[C@@H](O)[C@H](O)[C@H]2O)[C@@H](O)[C@H](O)[C@H]1O)[C@H]1CC[C@]2(C)[C@@H]1[C@H](O)C[C@@H]1[C@@]3(C)CC[C@H](O[C@@H]4O[C@H](CO)[C@@H](O)[C@H](O)[C@H]4O[C@@H]4O[C@H](CO)[C@@H](O)[C@H](O)[C@H]4O)C(C)(C)[C@@H]3CC[C@]12C [GINSENOSIDE RB1] | system: AMPK alpha2/beta1/gamma1 (Homo sapiens, UniProt P54619+P54646+Q9Y478)
Output line: 0.0168 to 2.8 µM

Input line: Would you mind doing `CC(C)=CCC[C@](C)(O[C@@H]1O[C@H](CO[C@@H]2O[C@H](CO)[C@@H](OC(=O)CC(=O)O)[C@H](O)[C@H]2O)[C@@H](O)[C@H](O)[C@H]1O)[C@H]1CC[C@]2(C)[C@@H]1[C@H](O)C[C@@H]1[C@@]3(C)CC[C@H](O[C@@H]4O[C@H](CO)[C@@H](O)[C@H](O)[C@H]4O[C@@H]4O[C@H](CO)[C@@H](O)[C@H](O)[C@H]4O)C(C)(C)[C@@H]3CC[C@]12C` as well?
Output line: 0.0168 to 2.8 µM
